Molecular target: protein kinase B (PKB)
Experiment: cell-based or functional assay
Square brackets hold non-standard residues; d marks the D form. Ends that are not written are not given here. * marks the point of attachment. Lithocholoyl = C[C@H](CCC(=O)*)[C@H]1CC[C@H]2[C@@H]3CC[C@@H]4C[C@H](O)CC[C@]4(C)[C@H]3CC[C@]12C; Biotin = O=C1N[C@H]2[C@H](CS[C@H]2CCCCC(=O)*)N1; hLeu = CC(C)CC[C@H](N)C(=O)O; VitB6 = vitamin B6 moiety; Nva = CCC[C@H](N)C(=O)O; Dap = NC[C@H](N)C(=O)O
OBSERVATION TYPE: IC50, kinase assay PKB (nM)

Below, each entry is followed by its recorded IC50, kinase assay PKB result.
BINDER	IC50, kinase assay PKB [nM]
Lithocholoyl-RPR[Nva]YA[hLeu]-NH2 (SMILES CCC[C@H](NC(=O)[C@H](CCCNC(=N)N)NC(=O)[C@@H]1CCCN1C(=O)[C@H](CCCNC(=N)N)NC(=O)CC[C@@H](C)[C@H]1CC[C@H]2[C@@H]3CC[C@@H]4C[C@H](O)CC[C@]4(C)[C@H]3CC[C@]12C)C(=O)N[C@@H](Cc1ccc(O)cc1)C(=O)N[C@@H](C)C(=O)N[C@@H](CCC(C)C)C(N)=O) [PTR 6194]	2000
Lauryl-RPR[Nva]Y[Dap][hLeu]-NH2 [PTR 6160]	8000
{S‑carbofluorescin}-RPR[Nva]Y[Dap][hLeu]-NH2 [PTR 6182]	3000
VitB6-RPR[Nva]Y[Dap][hLeu] [PTR 6232]	1000
{Galactopyranosyl‑O‑CO}-RPR[Nva]Y[Dap][hLeu]-NH2 [PTR 6214]	10000
{H‑1‑adamantyl}-RPR[Nva]YA[hLeu]-NH2 [PTR 6200]	300
{VitE‑Succinate}-RPR[Nva]YA[hLeu]-NH2 [PTR 6242]	1000
RPR[Nva]YA[hLeu]-NH2 (not fully specified (N-terminus)) [PTR 6202]	300

P = {Galactopyranosyl‑O‑CO}-RPR[Nva]YA[hLeu]-NH2 [PTR 6224]
Q = Lithocholoyl-RPR[Nva]Y[Dap][hLeu]-NH2 [PTR 6220]
R = {Testosterone‑yl‑O‑CO}-RPR[Nva]YA[hLeu]-NH2 [PTR 6226]
S = Biotin-RPR[Nva]Y[Dap][hLeu]-NH2 [PTR 6158]
Order by IC50, kinase assay PKB, ascending. Present the labels in the sequence the task asks for. S, Q, R, P
(S: 1000 nM, Q: 2000 nM, R: 3000 nM, P: 5000 nM)

A = VitB6-RPR[Nva]YA[hLeu]-NH2 [PTR 6228]
B = {Testosterone‑yl‑O‑CO}-RPR[Nva]Y[Dap][hLeu]-NH2 [PTR 6212]
Field: lower IC50, kinase assay PKB | Options: A / B In your reply, give the label of the chosen option. A

P = Lithocholoyl-GRPR[Nva]Y[Dap][hLeu]-NH2 [PTR 6218]
Q = Lithocholoyl-GRPR[Nva]YA[hLeu]-NH2 [PTR 6192]
Which of the two gives a bigger number for IC50, kinase assay PKB: P or Q ? Give the label under which the chosen entry appears. Q
(Q: 2500 nM, P: 800 nM)

Where do these numbers come from? They come from patent US20070078092A1.
